Assay Target: recombinant human MetAP2 (Homo sapiens, UniProt P50579)
Construct: Flag
Sequence (P50579 whole entry): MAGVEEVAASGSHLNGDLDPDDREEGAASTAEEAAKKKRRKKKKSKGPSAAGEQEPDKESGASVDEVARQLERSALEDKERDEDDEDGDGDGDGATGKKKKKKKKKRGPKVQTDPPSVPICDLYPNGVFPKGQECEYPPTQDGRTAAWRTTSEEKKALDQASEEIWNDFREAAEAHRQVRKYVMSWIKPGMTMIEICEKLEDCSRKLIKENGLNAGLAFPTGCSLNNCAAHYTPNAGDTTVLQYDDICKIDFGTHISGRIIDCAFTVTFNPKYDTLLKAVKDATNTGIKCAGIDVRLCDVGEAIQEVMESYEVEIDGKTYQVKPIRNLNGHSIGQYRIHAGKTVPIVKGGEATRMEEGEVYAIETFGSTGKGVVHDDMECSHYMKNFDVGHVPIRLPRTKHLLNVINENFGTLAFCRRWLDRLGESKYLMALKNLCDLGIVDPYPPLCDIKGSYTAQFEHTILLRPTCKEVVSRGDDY
Protocol: Inhibition of recombinant human MetAP2 activity (Amplex red fluorescence assay)
Reported Conditions: manganese enzyme, 0.75 mM Methionine-Alanine-Serine (MAS) substrate, 30 minutes at 25° C., pH 7.5, 1% DMSO
For each record, write down the corresponding IC50.

>  <Compound>
Cn1c2c(c(C(=O)O)c1NS(=O)(=O)c1ccccc1)CCCC2

>  <IC50>
200 to 2000 nM

$$$$

Look at each compound and report its IC50.
1. COc1cccc(S(=O)(=O)Nc2sc3c(c2C(=O)O)CCCC3)c1
2. O=C(O)c1c(NS(=O)(=O)c2ccccc2C(F)(F)F)sc2c1CCCC2
3. Cc1c(-c2ccccc2)sc(NS(=O)(=O)c2ccccc2)c1C(=O)O
4. O=C(O)c1c(NS(=O)(=O)c2ccc(F)cc2)sc2c1CCCC2
5. O=C(O)c1c(NS(=O)(=O)C2CCCCC2)sc2c1CCCC2
6. CCc1sc(NS(=O)(=O)c2ccccc2)c(C(=O)O)c1C(C)C

Output:
["200 to 2000 nM", "200 to 2000 nM", "> 2000 nM", "< 200 nM", "200 to 2000 nM", "200 to 2000 nM"]

Look at each compound and report its IC50.
1. O=C(O)c1c(NS(=O)(=O)c2ccccc2)sc2ccccc12
2. CC1CCc2c(sc(NS(=O)(=O)c3ccccc3)c2C(=O)O)C1 (centres unmarked)
3. O=C(O)c1c(NS(=O)(=O)c2ccccc2)sc2c1COCC2
4. Cc1c(-c2ccoc2)sc(NS(=O)(=O)c2ccccc2)c1C(=O)O

Output:
1: > 2000 nM; 2: < 200 nM; 3: 200 to 2000 nM; 4: 200 to 2000 nM

Look at each compound and report its IC50.
1. Cc1ccccc1S(=O)(=O)Nc1sc2c(c1C(=O)O)CCCC2
2. O=C(O)c1c(NS(=O)(=O)c2ccccc2)sc2c1CCOC2
3. CC1(C)CCc2sc(NS(=O)(=O)c3ccccc3)c(C(=O)O)c2C1
4. O=C(O)c1c(NS(=O)(=O)Cc2ccccc2)sc2c1CCCC2
5. O=C(O)c1c(NS(=O)(=O)c2ccccc2F)sc2c1CCCC2
6. CCN(CC)C/C=C\c1ccccc1S(=O)(=O)Nc1sc2c(c1C(=O)O)CCCC2

Output:
1: < 200 nM; 2: 200 to 2000 nM; 3: 200 to 2000 nM; 4: 200 to 2000 nM; 5: 200 to 2000 nM; 6: 200 to 2000 nM
